# TESTED SYSTEM: MRPL48 (UniProt Q96GC5)
# PROTOCOL NOTES: EC50 of free RNA motif oligo competing protein binding to immobilised probe
ENDPOINT: pEC50
The quantity pEC50 is defined as the negative base-10 logarithm of the molar concentration.

Lab note: need pEC50 for CUGUCCU on MRPL48 (UniProt Q96GC5), anyone have it?
6.75

###

# TESTED SYSTEM: MYEF2 (UniProt Q9P2K5)
# Sequence: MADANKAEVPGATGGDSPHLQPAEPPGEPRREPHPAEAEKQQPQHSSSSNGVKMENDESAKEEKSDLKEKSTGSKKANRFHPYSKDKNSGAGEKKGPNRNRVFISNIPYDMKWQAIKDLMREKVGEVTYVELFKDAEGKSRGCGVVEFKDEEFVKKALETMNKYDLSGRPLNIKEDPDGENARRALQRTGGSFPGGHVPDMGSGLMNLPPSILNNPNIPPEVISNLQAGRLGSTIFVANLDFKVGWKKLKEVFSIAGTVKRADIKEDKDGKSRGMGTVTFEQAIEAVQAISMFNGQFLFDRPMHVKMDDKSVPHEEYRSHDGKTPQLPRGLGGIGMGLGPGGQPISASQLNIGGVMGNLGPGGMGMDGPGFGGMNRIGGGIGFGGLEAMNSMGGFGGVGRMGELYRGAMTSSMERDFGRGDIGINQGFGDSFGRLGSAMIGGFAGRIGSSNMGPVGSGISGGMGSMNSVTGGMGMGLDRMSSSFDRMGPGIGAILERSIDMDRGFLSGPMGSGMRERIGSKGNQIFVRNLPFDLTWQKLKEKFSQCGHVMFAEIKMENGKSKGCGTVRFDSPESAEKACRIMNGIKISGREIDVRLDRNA
# PROTOCOL NOTES: EC50 of free RNA motif oligo competing protein binding to immobilised probe
ENDPOINT: EC50 (µM)
Hi! Could you send only the number? It should be in µM, unit omitted.

Give the measured EC50 of UAUUUAU .
3.8

Data provenance: the supplement of paper PMC6379048
